For each of the variants below, state its SGCB cell-surface expression functional score (log10).
B1: library; numbered along this chain (parent)
chain: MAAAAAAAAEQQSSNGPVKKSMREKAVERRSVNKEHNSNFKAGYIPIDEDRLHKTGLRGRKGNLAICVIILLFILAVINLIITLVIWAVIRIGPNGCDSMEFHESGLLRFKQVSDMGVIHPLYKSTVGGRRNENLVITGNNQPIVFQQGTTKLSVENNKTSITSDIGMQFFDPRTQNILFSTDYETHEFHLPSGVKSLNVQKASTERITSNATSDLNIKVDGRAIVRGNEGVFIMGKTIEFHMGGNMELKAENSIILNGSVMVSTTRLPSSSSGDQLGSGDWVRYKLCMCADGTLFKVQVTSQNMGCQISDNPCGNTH

# Variants of: B1
# assay info: SGCB cell-surface expression functional score (HA stain, bin4 vs bin1, normalised to synonymous) (log10 ratio); higher = more cell-surface SGCB (functional)
# output: bare number, no unit

// query Give its SGCB cell-surface expression functional score (log10) value. Item: E230T
// result 1.29

// query Follow-up item: S271R
// result -0.24

// query What do we get for T83K ?
// result -0.33

// query Follow-up entry: A4P
// result 0.44

// query What do you get for S272I ?
// result 0.34

// query Next up: D48K
// result -0.09

// query Continue with S193E
// result 1.32

// query Check L84C too.
// result -0.21

// query What do we get for P94N ?
// result -0.88

// query Consider next the variant V232P in the same way.
// result -0.64

// query # iterate: D275P
// result -1.24

// query Would you kindly repeat that for R131S ?
// result -0.09

// query Then what about the variant I225L ?
// result 0.83

// query Try this variant too: C288N
// result -0.51

// query Now try V118E .
// result -0.21

// query Also S254C , if possible.
// result 0.55

// query Moving on to G128D
// result -0.05

// query Another variant to look at: G62N
// result -0.29

// query What do we get for S181L ?
// result -1.37

// query Also check H103M
// result -0.23

// query Next variant up: G59M
// result 0.31

// query Then what about the variant S21E ?
// result -0.28

// query Try N304Q next.
// result -0.11

// query Also F171P ?
// result -0.43

// query Would you mind doing I225D as well?
// result 0.7

// query Query G117I next
// result -1.22

// query And what about the variant I74W ?
// result 0.64

// query What about Y123I ?
// result -0.3

// query What do you get for N177L ?
// result 0.29

// query Repeat with V68I
// result 0.05

// query Entry to check: V127F
// result -0.12

// query Then this variant: A291P
// result 0.02

// query // next record N217D
// result 0.2

// query Same again, this time with K196V
// result -0.07

// query Moving on to the next variant: A251D
// result -0.84

// query What do you get for G129N ?
// result -0.81

// query Also, E10F please.
// result -0.46

// query Could you do the same for Y123C , please?
// result 0.25

// query Same question for V298L please.
// result -0.21

// query Request: F296C
// result -0.18

// query Next record, please: G149C
// result -0.49

// query Follow-up item: Q176I
// result -0.61

// query Likewise for H120Y ?
// result 0.03

// query Thanks! And P173E ?
// result 0

// query K25Y , same question.
// result -0.31

// query Param item: P173F
// result -0.34
